- PROTOCOL DESCRIPTION: total protein half-life in vivo (active degradation + dilution); higher = more stable protein
- TEST CONTEXT: wild type E. coli NCM3722; growth: N-lim chemostat; doubling time 12 h
EXPERIMENTAL ENDPOINT: total protein half-life in vivo (h)
Please give a number only; it is taken to be in h.

Query: May I ask what total protein half-life in vivo has been recorded for `MTIYFINWVADYELKMIQYLKKKYKIKNITTPKKYNWINKKISKIGMDNAWLGRLFIKHYLNDIKKDDIIIINDSVVNKGINKQILKNINCHKVLLLRNTVGEDFILDNANYFDIIYDFEHRFIGNEKIKAIEQFFPIGMDEIRNYSLSDKNNSQPICFFLGRDKGRLQIINELAERLTTLGCKLDFNVVKDKTSSTTSKYLIEKQISYEENIRRTLNANIIVDITKENQSGWTLRILEALFFNKKLITNNINVFGSEIYSESRFFIIGHDDWDKLEYFINSSVKPMDYDSLYKFSPDKMMSTIVSDFIDK` ?
Response: 10.8

Query: May I ask what total protein half-life in vivo has been recorded for MRLTSKGRYAVTAMLDVALNSEAGPVPLADISERQGISLSYLEQLFSRLRKNGLVSSVRGPGGGYLLGKDASSIAVGEVISAVDESVDATRCQGKGGCQGGDKCLTHALWRDLSDRLTGFLNNITLGELVNNQEVLDVSGRQHTHDAPRTRTQDAIDVKLRA [P0AGK8] ?
Response: 1.37

Query: May I ask what total protein half-life in vivo has been recorded for `MPFRSNNPITRDELLSRFFPQYHPVTTFNSGLSGGSFLIEHQGQRFVVRQPHDPDAPQSAFLRQYRALSQLPACIAPKPHLYLRDWMVVDYLPGAVKTYLPDTNELAGLLYYLHQQPRFGWRITLLPLLELYWQQSDPARRTVGWLRMLKRLRKAREPRPLRLSPLHMDVHAGNLVHSASGLKLIDWEYAGDGDIALELAAVWVENTEQHRQLVNDYATRAKIYPAQLWRQVRRWFPWLLMLKAGWFEYRWRQTGDQQFIRLADDTWRQLLIKQ` ?
Response: 13.6
